test system: VDR homodimer (NR concentration 270 nM); experiment: PBM binding z-score (relative to random genomic background probes); higher = stronger binding; sequences stand for … in GC…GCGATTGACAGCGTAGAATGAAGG
READOUT LABEL: PBM binding z-score
The reply should be a number, written without any unit.

Solved entries:
# POLYMER SEQUENCE, READOUT NUMBER
rows = [
    ("TCGAGTAGGTTACGGGGGCATTCTGGGATGAAGA", 3.52),
    ("CCTAGCCGGCCAATCTGGGTCACTCAAGGCTTGA", 0.329),
    ("AGTCAAAGTTCAGCACGAGGTAACGTAAAGCACG", 2.3),
    ("ACTAGTTGGTCAGCTGAGGTAACACACAATTCGG", 0.0871),
]

Okay, next one:
### Prompt What does the data say about its PBM binding z-score? Entry: CCCGCTAGGTCATGGTCAGCTAATCTACAGTATG
### Response 0.379

----------
tested on: PPARg:RXRa 90nM:30nM, anti-RXR (NR concentration 90 nM, RXRa partner concentration 30 nM); experiment: PBM binding z-score (relative to random genomic background probes); higher = stronger binding; sequences stand for … in GC…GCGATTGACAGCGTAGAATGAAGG
# key: entry, value: PBM binding z-score

# POLYMER SEQUENCE, TARGET SYSTEM, PBM binding z-score
measured = [
    ("TCTGCTGGGTCAACGATGGTCAGCTAATCTGCTA", "PPARg:RXRa 90nM:30nM, anti-RXR (NR concentration 90 nM, RXRa partner concentration 30 nM)", 2.14),
]

### Prompt What does the data say about its PBM binding z-score? Entry: ATATGTAGGTTAGCGTCATTCAGAAAGTAGGGAA
### Response 2.32

### Prompt What does the data say about its PBM binding z-score? Entry: CCTCGGAGGACAACCGGAGGTCAGAGCTGCCAGA
### Response 0.0511

### Prompt What does the data say about its PBM binding z-score? Entry: CAAACTAGGTCACAGAGGTCAACGTCCGTGCGTA
### Response 8.46

### Prompt What does the data say about its PBM binding z-score? Entry: CAAACTAGGTCAAAGGTCAAAGCCGAGCCAACCA
### Response 13

### Prompt What does the data say about its PBM binding z-score? Entry: GCTGCTAGGTCAGGATGGTCAGCTAACGGGTACG
### Response 0.479

----------
system: RXRa DBDmut IVT, anti-RXR (DBD mutation: RXRa K156A/R161A, NR concentration 90 nM); assay: PBM binding z-score (relative to random genomic background probes); higher = stronger binding; sequences stand for … in GC…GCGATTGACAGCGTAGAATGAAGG
Classes by PBM binding z-score: low value (below 0.7), medium value (0.7 to below 2), high value (2 or more)

# POLYMER SEQUENCE, CLASS NAME
rows = [
    ("TTATCAAGGTGAAAGGTCGTTGATGCACGCCTTG", "medium value"),
    ("CCGAGTAGGTTACGAGGGGGCATTCCGTGCGAAT", "medium value"),
    ("ATATGTAGGTTACATCGGGGTCATTCAGGCTATG", "high value"),
    ("ACCAGCAGGCCAAGGGTCACTCAAGATTAGTCCG", "low value"),
    ("CCTGCTAGTTCAATGGTCAGCTAAAGCAGCTCGC", "high value"),
    ("CAAAGTAGGTCACCGGAAGGTCAAAGTCCGCATG", "medium value"),
    ("TGTCAAAGTTCTAAGGTAACGTAAGTATCCACAC", "low value"),
    ("TGGCCTAGGTCATGCGGGCCAGTATAGTGTCGGC", "low value"),
]

### Prompt In plain terms, what class is CCGAGTAGGTTACGAGGGGGCATACAGTGCGAAT ?
### Response medium value

### Prompt In plain terms, what class is AGATTGAGGTTACCAAAGATCAGGGAAACGCTTG ?
### Response medium value

### Prompt In plain terms, what class is ATGTGTAGGTTAGGGTCATTCAGAAAGTAGGGAA ?
### Response high value

### Prompt In plain terms, what class is ATCGAAAAGTCGAAGGTGAGTATACCCACCCGAA ?
### Response low value

### Prompt In plain terms, what class is TCGAGTTGGTTACGGGGGCATTCAGGGATGAAGA ?
### Response high value

### Prompt In plain terms, what class is GATTCAGGGTCAGCTAGAGGCCAGAGTATGGAAA ?
### Response medium value

### Prompt In plain terms, what class is CGTCCAAGGTCAGAGAGGTCATTGAATGCCGAGT ?
### Response high value
